FYI, the data here is from ChEMBL document CHEMBL1158340.

# System: Escherichia coli
# Assay Remarks: Antibacterial activity against Escherichia coli MTCC 51 after 24 hrs
# Format: functional
# Protocol Conditions: MTCC 51, 24 h
Endpoint: log10 of MIC (log10 of the value in µg/mL)
Please note: log10 values; quantity MIC; unit µg/mL.

# annotated cases, reported log10 of MIC shown
Compound	log10 of MIC
COc1cc(O)ccc1-c1nnc2cc(C)nc(C)n12	0.60
Cc1cc2nnc(-c3cccs3)n2c(C)n1	1.81
COc1ccc(-c2nnc3cc(C)nc(C)n23)cc1	1.20
Cc1cc2nnc(-c3ccc(Cl)cc3Cl)n2c(C)n1	0.00
Cc1cc2nnc(-c3ccc(Br)cc3)n2c(C)n1	1.20

[ask] Dear colleague, I am looking for the recorded log10 of MIC of the following compound: `Cc1cc2nnc(-c3ccc([N+](=O)[O-])cc3)n2c(C)n1`
[reply] 2.40

[ask] Dear colleague, I am looking for the recorded log10 of MIC of the following compound: `COc1ccc(OC)c(-c2nnc3cc(C)nc(C)n23)c1`
[reply] 2.10

[ask] Dear colleague, I am looking for the recorded log10 of MIC of the following compound: CN[C@@H]1[C@H](O[C@H]2[C@H](O[C@H]3[C@H](O)[C@@H](O)[C@H](N=C(N)N)[C@@H](O)[C@@H]3N=C(N)N)O[C@@H](C)[C@]2(O)C=O)O[C@@H](CO)[C@H](O)[C@H]1O [STREPTOMYCIN]
[reply] 0.60

[ask] Dear colleague, I am looking for the recorded log10 of MIC of the following compound: `Cc1cc2nnc(-c3cccnc3)n2c(C)n1`
[reply] 0.90

----------
# Test system: Geobacillus stearothermophilus
# Assay Remarks: Antibacterial activity against Bacillus stearothermophilus MTCC 8508 at 50 ug/mL by agar well diffusion method
# Format: functional
# Protocol Conditions: read-out: DIZ
Endpoint: zone of inhibition at 50 µg/mL (mm)
Answer with a number only, understood to be in mm.

Compound	Measured Target	Units Label	zone of inhibition at 50 µg/mL
Cc1cc2nnc(-c3ccc(F)cc3)n2c(C)n1	Geobacillus stearothermophilus	mm	23.4

[ask] Dear colleague, I am looking for the recorded zone of inhibition at 50 µg/mL of the following compound: `Cc1cc2nnc(-c3ccc([N+](=O)[O-])cc3)n2c(C)n1`
[reply] 10.3

[ask] Dear colleague, I am looking for the recorded zone of inhibition at 50 µg/mL of the following compound: `COc1ccc(OC)c(-c2nnc3cc(C)nc(C)n23)c1`
[reply] 8.33

[ask] Dear colleague, I am looking for the recorded zone of inhibition at 50 µg/mL of the following compound: `Cc1ccc(-c2nnc3cc(C)nc(C)n23)cc1`
[reply] 19.7

[ask] Dear colleague, I am looking for the recorded zone of inhibition at 50 µg/mL of the following compound: `Cc1cc2nnc(-c3ccc(Cl)cc3)n2c(C)n1`
[reply] 11.8

[ask] Dear colleague, I am looking for the recorded zone of inhibition at 50 µg/mL of the following compound: `Cc1cc2nnc(-c3ccc(Cl)cc3Cl)n2c(C)n1`
[reply] 48.3

[ask] Dear colleague, I am looking for the recorded zone of inhibition at 50 µg/mL of the following compound: `Cc1cc2nnc(-c3cccnc3)n2c(C)n1`
[reply] 39.7

[ask] Dear colleague, I am looking for the recorded zone of inhibition at 50 µg/mL of the following compound: `COc1ccc(-c2nnc3cc(C)nc(C)n23)cc1`
[reply] 20.7

[ask] Dear colleague, I am looking for the recorded zone of inhibition at 50 µg/mL of the following compound: `Cc1cc2nnc(-c3ccc(Br)cc3)n2c(C)n1`
[reply] 41.7

[ask] Dear colleague, I am looking for the recorded zone of inhibition at 50 µg/mL of the following compound: O=C(N[C@H](CO)[C@H](O)c1ccc([N+](=O)[O-])cc1)C(Cl)Cl [CHLORAMPHENICOL]
[reply] 53.2
